Kindly state viability, T/C for each of the entries shown.
- Test system: 362531-283-R-J2-PDC complex spheroid viability;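 note: spheroids exposed to the agents for 7 days before readout; luminescence viability as percent of DMSO vehicle control wells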
- assay.notes: Anticancer human tumor 362531-283-R-J2-PDC patient-derived colon adenocarcinoma cell line growth inhibition [RAS]
- condition.label: second compound 0.003 µM; first compound 0.3 µM; stronger effect = lower value
A number alone suffices; assume %.

Entry CC1(C)CCC(Nc2ncc(C(F)(F)F)c(-c3c[nH]c4c(P(C)(C)=O)c(C#N)ccc34)n2)CN1 (centres undefined) + CCn1c(-c2cccnc2C(C)OC)c2c3cc(ccc31)N1CCOC(CC(NC(=O)C(C(C)C)N(C)C(=O)C3(F)CCN(C(=O)C#CC(C)(C)N(C)C)CC3)C(=O)N3CCCC(N3)C(=O)OCC(C)(C)C2)C1 — recorded viability, T/C = 89.1

So for CC1(C)CCC(Nc2ncc(C(F)(F)F)c(-c3c[nH]c4c(P(C)(C)=O)c(C#N)ccc34)n2)CN1 (centres undefined) + CCn1c(-c2cc(N3CCN(C)CC3)cnc2C(C)OC)c2c3cc(ccc31)-c1csc(n1)CC(NC(=O)C1CC1C)C(=O)N1CCCC(N1)C(=O)OCC(C)(C)C2 , the logged viability, T/C turned out to be 95.3

GET /value?item= CCc1c2c(nc3ccc(O)cc13)-c1cc3c(c(=O)n1C2)COC(=O)[C@]3(O)CC + CCn1c(-c2cc(N3CCN(C)CC3)cnc2C(C)OC)c2c3cc(ccc31)-c1csc(n1)CC(NC(=O)C1CC1C)C(=O)N1CCCC(N1)C(=O)OCC(C)(C)C2 &field=viability, T/C returns 19.2

The molecule listed as CCc1c2c(nc3ccc(O)cc13)-c1cc3c(c(=O)n1C2)COC(=O)[C@]3(O)CC + CCn1c(-c2cccnc2C(C)OC)c2c3cc(ccc31)N1CCOC(CC(NC(=O)C(C(C)C)N(C)C(=O)C3(F)CCN(C(=O)C#CC(C)(C)N(C)C)CC3)C(=O)N3CCCC(N3)C(=O)OCC(C)(C)C2)C1 shows viability, T/C equal to 16.7
